// data source = ChEMBL document CHEMBL3351663

- ASSAY DETAILS: Half life in human liver microsomes
- CONDITION: liver microsomes
As shown below, each of these compounds has a reported half-life value.

{"columns": ["SMILES STR", "half-life"],
 "data": [
  ["CC(C)Oc1ccc(-c2ccc3c(n2)Oc2c(F)cccc2[C@@H]3C(C)(C)C(=O)NC(N)=O)cn1", "191 min"]
]}

Please find the next compound below.
Endpoint output: half-life of `CC(C)(C(=O)Nc1nncs1)[C@@H]1c2ccc(-c3ccc(C(=O)N4CCOCC4)cc3)nc2Oc2c(F)cccc21` . Value?
9.1 min

###

- ASSAYED TARGET: Glucocorticoid receptor (Homo sapiens, UniProt P04150)
- Sequence (P04150 whole entry): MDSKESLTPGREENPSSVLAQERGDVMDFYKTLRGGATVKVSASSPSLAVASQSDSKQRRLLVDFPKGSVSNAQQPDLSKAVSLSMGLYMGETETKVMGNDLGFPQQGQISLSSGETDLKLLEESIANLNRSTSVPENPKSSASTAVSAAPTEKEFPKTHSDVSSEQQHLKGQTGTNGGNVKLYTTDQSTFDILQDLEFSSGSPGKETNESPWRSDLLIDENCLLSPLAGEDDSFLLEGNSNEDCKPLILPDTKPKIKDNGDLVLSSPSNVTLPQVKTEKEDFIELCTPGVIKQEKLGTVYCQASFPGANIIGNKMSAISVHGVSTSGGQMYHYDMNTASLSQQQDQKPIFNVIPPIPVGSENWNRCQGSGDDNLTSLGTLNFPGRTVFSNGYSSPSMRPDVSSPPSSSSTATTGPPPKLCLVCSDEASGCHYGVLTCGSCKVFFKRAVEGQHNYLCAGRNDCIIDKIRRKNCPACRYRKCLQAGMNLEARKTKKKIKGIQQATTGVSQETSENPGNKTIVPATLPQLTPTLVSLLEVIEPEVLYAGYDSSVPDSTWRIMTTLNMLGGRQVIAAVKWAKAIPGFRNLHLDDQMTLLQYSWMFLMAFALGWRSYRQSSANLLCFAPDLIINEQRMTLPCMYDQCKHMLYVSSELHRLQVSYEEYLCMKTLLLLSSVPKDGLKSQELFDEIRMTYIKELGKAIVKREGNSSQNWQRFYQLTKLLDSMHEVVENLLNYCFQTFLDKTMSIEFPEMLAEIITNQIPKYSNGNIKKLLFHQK
- ASSAY DETAILS: Agonist activity at glucocorticoid receptor in human A549 cells assessed as AP-1 transrepression by luciferase reporter gene assay
- Format: cell-based
MEASURED ATTRIBUTE: pEC50
pEC50 here: minus log base 10 of the concentration, concentration in moles per litre.

Some compounds with recorded pEC50:
{"columns": ["SMILES STR", "pEC50"],
 "data": [
  ["CC(=O)NC(=O)C(C)(C)[C@@H]1c2ccc(-c3ccc(C(=O)N4CCOCC4)cc3)nc2Oc2c(F)cccc21", 8.30],
  ["CC(C)Oc1ccc(-c2ccc3c(n2)Oc2c(F)cccc2[C@@H]3C(C)(C)C(=O)NC(N)=O)cn1", 8.17],
  ["CC(=O)NC(=O)C(C)(C)[C@@H]1c2ccc(-c3ccc(C(=O)N(C)C)cc3)nc2Oc2c(F)cccc21", 6.67],
  ["CC(C)(C(=O)NC(N)=O)[C@@H]1c2ccc(-c3ccc(C(=O)N4CCCC4)cc3)nc2Oc2c(F)cccc21", 8.80],
  ["CN(C)C(=O)NC(=O)C(C)(C)[C@@H]1c2ccc(-c3ccc(C(=O)N4CCOCC4)cc3)nc2Oc2c(F)cccc21", 6.04]
]}

Please report the recorded pEC50 for `CC(C)(C(=O)NC(=O)C1CC1)[C@@H]1c2ccc(-c3ccc(C(=O)N4CCOCC4)cc3)nc2Oc2c(F)cccc21` .
7.74

Give its pEC50 value. Item: `CC(C)(C(=O)NC(N)=O)[C@@H]1c2ccc(-c3ccc(C(=O)N4CC[C@H](F)C4)cc3)nc2Oc2c(F)cccc21`
9.10

Give its pEC50 value. Item: `CC(C)(C(=O)NC(=O)NC1CCC1)[C@@H]1c2ccc(-c3ccc(C(=O)N4CCOCC4)cc3)nc2Oc2c(F)cccc21`
7.76
